# Test system: CCRF-CEM leukemia
# Assay remarks: NCI-60 one-dose screen, 48 h
# Condition description: 10 µM
The panel holds about 83,000 compounds, 20% with a hit somewhere; the sample as a whole holds those more often. Calls of active or inactive are those of the source. The calls were made as follows: active = growth percent below 10; inactive = the rest.
Return exactly one item of true = active, false = inactive

Recorded results for 3 molecules are shown here.
INSERT INTO results (molecule, category) VALUES
  ('CC(=O)Oc1ccccc1C(=O)NC([Se])=NC1CCCCC1', 'false'),
  ('C[C@H]1[C@H](OC(=O)CCC(=O)N(CCCc2cn(-c3ccc(C#N)cc3)nn2)CCNc2ccnc3cc(Cl)ccc23)O[C@@H]2OC3(C)CC[C@H]4[C@H](C)CC[C@@H]1[C@@]24OO3', 'false'),
  ('O=C(/C=C/c1ccco1)c1nc2ccccc2n1Cc1ccc(F)cc1', 'false');

Lookup: Which outcome was assigned to `C#CC[Se]C(=O)c1ccc(C(=O)[Se]CC#C)s1` in this test?
Found: false

Lookup: Which outcome was assigned to `CC[C@]12C=CCN3CC[C@@]4(c5ccc(OC)cc5N(C)[C@H]4[C@@](O)(C(=O)OC)[C@@H]1OC(=O)CCCC[P+](C1CCCCC1)(C1CCCCC1)C1CCCCC1)[C@@H]32` in this test?
Found: true

Lookup: Which outcome was assigned to `COc1ccc2cc([C@H](C)C(=O)[Se]CCC#N)ccc2c1` in this test?
Found: true

Lookup: Which outcome was assigned to `C=CC[Se]C(=O)c1cncc(C(=O)[Se]CC=C)c1` in this test?
Found: true

Lookup: Which outcome was assigned to `O=C(NC([Se])=NC1CCCCC1)c1ccccc1` in this test?
Found: false

Lookup: Which outcome was assigned to `COc1cc2cc(C(=O)N3C[C@@H](CCl)c4c3cc(OC(=O)N3CCN(C(=O)CCC(=O)N5CCN(C)CC5)[C@@H]5CSSC[C@@H]53)c3ccccc43)[nH]c2c(OC)c1OC` in this test?
Found: false

Lookup: Which outcome was assigned to `C=CCN=C([Se])NC(=O)c1ccc2c(c1)OCO2` in this test?
Found: false

Lookup: Which outcome was assigned to `COC(=O)C[C@](O)(CCCC(C)C)C(=O)O[C@H]1C(OC)=C[C@@]23CCCN2CCc2cc4c(cc2[C@@H]13)OCO4` in this test?
Found: true

Lookup: Which outcome was assigned to `C[C@H]1[C@H](OC(=O)CCC(=O)N(CCCc2cn(-c3ccc(CN4CCOCC4)cc3)nn2)CCNc2ccnc3cc(Cl)ccc23)O[C@@H]2OC3(C)CC[C@H]4[C@H](C)CC[C@@H]1[C@@]24OO3` in this test?
Found: true

Lookup: Which outcome was assigned to `CCOP(=O)(CC(F)(F)C(F)(F)F)OCC` in this test?
Found: true

Lookup: Which outcome was assigned to Cc1c2oc3c(C)ccc(C(=O)N[C@@H]4C(=O)N[C@H](C(C)C)C(=O)N5CCC[C@H]5C(=O)N(C)CC(=O)N(C)[C@@H](C(C)C)C(=O)OC4C)c3nc-2c(C(=O)N[C@@H]2C(=O)N[C@H](C(C)C)C(=O)N3CC(=O)C[C@H]3C(=O)N(C)CC(=O)N(C)[C@@H](C(C)C)C(=O)OC2C)c(N)c1=O (stereo partly specified) in this test?
Found: true

Lookup: Which outcome was assigned to `CC(C)N=C([Se])NC(=O)c1cccs1` in this test?
Found: false

Lookup: Which outcome was assigned to `C#CC[Se]C(=O)c1ccc2n[se]nc2c1` in this test?
Found: true

---

# Test system: MDA-MB-468 breast
# Assay remarks: NCI-60 one-dose screen, 48 h (100 = growth as untreated, 0 = no growth, -100 = all killed)
# Condition description: 10 µM unless noted
The panel holds about 83,000 compounds, 20% with a hit somewhere; the sample as a whole holds those more often.
Parameter: growth (%)
Unit % implied. Number only.

Example results:
INSERT INTO assay_data (compound, endpoint_unit, test_result) VALUES
  ('CCOC(=O)C1(c2ccccc2)CCN(CC(=O)c2ccc(NC(C)=O)cc2)CC1', '%', 110),
  ('Cc1cc(NC(=O)NCCCOc2ccc(N3C(N)=NC(N)=NC3(C)C)cc2Cl)ccc1S(=O)(=O)F', '%', 7.83),
  ('COc1cc([N+](=O)[O-])c2nc(C)ccc2c1[N+](=O)[O-]', '%', -9.11);

Lookup: // lookup growth for `Cc1cc(NC(=O)CCc2ccc(N3C(N)=NC(N)=NC3(C)C)cc2)ccc1S(=O)(=O)F`
Found: 32.4

Lookup: // lookup growth for `Cc1c(NS(=O)(=O)c2ccccc2)ccc([N+](=O)[O-])c1Cl`
Found: 34.5

Lookup: // lookup growth for `Oc1ccccc1C=NCCN=Cc1ccccc1O.[Fe]`
Found: 64.3

Lookup: // lookup growth for `CCC(Br)(CC)C(=O)NC(N)=O`
Found: 97.7

Lookup: // lookup growth for `COCCOCCOCCOc1ccc(-n2cc(CCCN(CCNc3ccnc4cc(Cl)ccc34)C(=O)CCC(=O)O[C@@H]3O[C@@H]4OC5(C)CC[C@H]6[C@H](C)CC[C@@H]([C@H]3C)[C@@]46OO5)nn2)cc1`
Found: 44.9

Lookup: // lookup growth for `Cc1cc[c-]cc1.Fc1c[c-]c(-c2ccccn2)c(F)c1.N#CCC[PH+](CCC#N)c1ccccc1.[Pt+2]`
Found: 37

---

# Tested on: MDA-MB-468 breast
# Assay remarks: NCI-60 one-dose screen, 48 h
# Condition description: 10 µM unless noted
# Method: Growth inhibition of the MDA-MB-468 human Breast tumor cell line is measured as a screen for anti-cancer activity. Cells are grown in 96 well plates and exposed to the test compound for 48 hours. Compounds are tested at a single concentration, which is 10^-5 M for most compounds. The reported endpoint is percent growth (GI% or GIPRCNT), where numbers from 0 - 100% represent growth inhibition, and numbers from -100% - 0 represent cell death. […]
About 83,000 compounds went through this panel and 20% of them were active in at least one assay; those are over-represented in the sample as a whole. Active and inactive are the calls of the source. Rule for the calls: active = growth percent below 10; inactive = the rest.
Return exactly one item of active, inactive

INSERT INTO measurements (compound, category) VALUES
  ('O=[N+]([O-])/C=C/c1ccc([N+](=O)[O-])cc1', 'inactive'),
  ('O=C([Se]C1C=CCCC1)c1ccc(C(=O)[Se]C2C=CCCC2)s1 (centres undefined)', 'active');

Lookup: Which outcome was assigned to `CCOC(=O)c1cnc(SCc2ccc(Cl)c(Cl)c2)nc1N1CC1` in this test?
Found: active

Lookup: Which outcome was assigned to `O=[N+]([O-])c1ccc2scc3c4ccccc4nc-3c2c1` in this test?
Found: active

Lookup: Which outcome was assigned to `CC1=C2[C@H]3OC(=O)[C@@H](C)[C@@H]3CC[C@@]2(C)C=CC1=O` in this test?
Found: inactive

Lookup: Which outcome was assigned to `CCOC(=O)c1ccccc1C(=O)OCC` in this test?
Found: inactive

Lookup: Which outcome was assigned to `CC1(C)[C@H](O)[C@H](F)C[C@@]2(C)Oc3ccc(C(=O)Nc4ccc5c(c4)NC(=O)C54CCN(CCCCC#N)CC4)cc3C[C@H]12` in this test?
Found: active

Lookup: Which outcome was assigned to Clc1ccc(CSC(Cn2ccnc2)c2ccc(Cl)cc2Cl)cc1 (centres undefined) in this test?
Found: active

Lookup: Which outcome was assigned to CNC12C3C4C1C1C2C3C41C(=O)N[C@H](C(=O)N(C)[C@H](C[C@@H](OC(C)=O)c1nc(C(=O)N[C@@H](Cc2ccccc2)C[C@H](C)C(=O)OC)cs1)C(C)C)C1CC1 (some centres undefined) in this test?
Found: active

Lookup: Which outcome was assigned to `C[CH2][Sn]([Cl])([Cl])[CH2]C.Oc1ccccc1C=NCCN=Cc1ccccc1O` in this test?
Found: inactive

---

Recorded growth for the following compounds
# Tested on: RPMI-8226 leukemia
# Assay remarks: NCI-60 one-dose screen, 48 h (100 = growth as untreated, 0 = no growth, -100 = all killed)
# Condition description: 10 µM
# Experimental: Growth inhibition of the RPMI-8226 human tumor cell line is measured as a screen for anti-cancer activity. Cells are grown in 96 well plates and exposed to the test compound for 48 hours. Compounds are tested at a single concentration, which is 10^-5 M for most compounds. The reported endpoint is percent growth (GI% or GIPRCNT), where numbers from 0 - 100% represent growth inhibition, and numbers from -100% - 0 represent cell death. For example, a value of 40 represents 60% growth inhibition. […]
This is part of a sample that, as a whole, favours compounds with a hit. Of some 83,000 tested, about 20% had one in any assay.
Unit % implied. Number only.

Example results:
INSERT INTO assay_data (compound, test_result) VALUES
  ('CCC[Se]C(=O)c1ccc(C(=O)[Se]CCC)s1', -5.8),
  ('O=C(/C=C/c1ccccc1Cl)c1nc2ccccc2n1Cc1ccc(F)cc1', -29.7);

Lookup: // lookup growth for `CC(=O)Oc1ccccc1C(=O)[Se]C(=NC(C)C)NC(C)C`
Found: -20

Lookup: // lookup growth for `O=C(/C=C/c1ccco1)c1nc2ccccc2n1Cc1ccc(Br)cc1`
Found: -5.78

Lookup: // lookup growth for `O=C(/C=C/c1cccc(Br)c1)c1nc2ccccc2n1Cc1ccc(Br)cc1`
Found: -34.8

Lookup: // lookup growth for CC12OOC(C)(OO1)C2CCC(=O)NCCCNc1ccnc2cc(Cl)ccc12 (stereo unspecified)
Found: 39

Lookup: // lookup growth for `C#CC[Se]C(=O)c1ccc(C(=O)[Se]CC#C)s1`
Found: 86

Lookup: // lookup growth for `COC(=O)c1ccc(-n2cc(CCCN(CCNc3ccnc4cc(Cl)ccc34)C(=O)CCC(=O)O[C@@H]3O[C@@H]4OC5(C)CC[C@H]6[C@H](C)CC[C@@H]([C@H]3C)[C@@]46OO5)nn2)cc1`
Found: 19.7

Lookup: // lookup growth for `O=C(/C=C/c1cccc(Br)c1)c1nc2ccccc2n1Cc1ccc(F)cc1`
Found: -24.7

Lookup: // lookup growth for `COC(=O)C[C@](O)(CCC(C)C)C(=O)O[C@@H]1C(OC)=C[C@]23CCCN2CCc2cc4c(cc2[C@H]13)OCO4`
Found: -30.2

Lookup: // lookup growth for `CC1=C(CCC=NNC(N)=O)C2=C(C)C3(CC3)[C@@](C)(O)C(=O)C2=C1`
Found: 1.7

Each recorded value in this set is attributed to PubChem BioAssay (NCI).
